# Tested on: HepG2 (hepatocellular carcinoma)
# Test Method Notes: MTT cytotoxicity assay, HepG2
# Format: cell-based, human
# Applied Conditions: Homo sapiens, HepG2; 72 h, MTT; mean ± SD; read-out: IC50 HepG2
# Experimental: The parent compound harmine, as well as the reference drug 5-fluorouracil, were used as positive controls. The experiments were carried out on five human cell lines purchased from American Type Culture Collection (ATCC): HepG2 (hepatocellular carcinoma; ATCC® HB-8065™), SW620 (colorectal adenocarcinoma; ATCC® CCL-227™), HCT116 (colorectal carcinoma; ATCC® CCL-247™), MCF-7 (breast adenocarcinoma; ATCC® HTB-22™), and Hek293T (embryonic kidney cells; ATCC® CRL-3216™). […]
Measured Parameter: pIC50
Units for pIC50: none; it is -log10 of a concentration expressed in mol/L.

Req: Which measured pIC50 value corresponds to O=c1[nH]cc(F)c(=O)[nH]1 [Compound 5-FU, 5-fluorouracil, reference compound] ?
Resp: 5.26
